Source of measurements: ChEMBL document CHEMBL1157539

What Inhibition was measured for each of the following?
System: Plasmodium falciparum
Method description: GSK_TCMDC: Inhibition of Plasmodium falciparum 3D7 in whole red blood cells, using parasite LDH activity as an index of growth. Test compounds present at 2uM
Type: functional
One number for each entry, in %.

// known answers, use as guide
Input smiles: C=CCn1c(SCc2c(C)noc2C)nc2scc(-c3cccs3)c2c1=O
Tested on: Plasmodium falciparum
Measure unit: %
Inhibition: 88
--
Input smiles: O=C(Nc1cc(C(F)(F)F)cc(C(F)(F)F)c1)N1CCC(CCN2CCC(c3c[nH]c4ccccc34)CC2)CC1
Tested on: Plasmodium falciparum
Measure unit: %
Inhibition: 91
--
Input smiles: CCN(CC)C(C)(C)CN(Cc1ccc(-c2ccc(C(F)(F)F)cc2)cc1)C(=O)Cn1c(CCc2cccc(F)c2F)nc(=O)c2ccccc21.O=C(O)C(O)C(O)C(=O)O
Tested on: Plasmodium falciparum
Measure unit: %
Inhibition: 91

Okay, next one:
Prompt line: Quick one: Inhibition for COc1cc2nc(NCC3CCN(c4nc(N)c5cc(OC)c(OC)cc5n4)CC3)nc(N)c2cc1OC ?
Response line: 92

----------
Tested on: Plasmodium falciparum
Method description: GSK_TCMDC: Inhibition of Plasmodium falciparum 3D7 in whole red blood cells, using parasite LDH activity as an index of growth. Test compounds present at 2uM
Type: functional
Readout type: Inhibition (%)
Answers are plain numbers, in %.

// known answers, use as guide
Compound: O=S(=O)(c1ccccc1)C1CC1
Inhibition / %: 89
--
Compound: O=C(NCC(c1ccc(C(F)(F)F)cc1)N1CCCC1)c1cc(-c2ccncc2)c(-c2cccc(O)c2)o1.O=C(O)C(F)(F)F (configuration not stated)
Inhibition / %: 95
--
Compound: CC(=O)N[C@H](C(=O)Nc1ccc(-c2ccc(-c3nc4cc(C(F)(F)F)ccc4[nH]3)s2)cc1)C(C)C
Inhibition / %: 88
--
Compound: CCCCOC(=O)[C@H](CCC)NC(=O)c1ccc(NS(=O)(=O)c2ccc3nc(N)[nH]c(=O)c3c2)cc1
Inhibition / %: 99
--
Compound: COc1cc(-c2nc(-c3ccccc3)c(-c3ccccc3)[nH]2)cc(OC)c1O
Inhibition / %: 100

Your task in this section: give Inhibition for each listed record.
1. CC1CCN(C(=O)C(Cc2c[nH]c3ccccc23)NS(=O)(=O)c2ccc(Cl)cc2)CC1 (configuration not stated)
2. O=C(NCCN1CCCc2ccccc21)C1CCN(c2nc(-c3ccc(Cl)cc3)no2)CC1
3. COc1ccc(-c2cnc3ccc(NCCCO)nn23)cc1OC
4. Cc1cccc2nc(-c3cccc(-c4cccc(CNCCN5CCNCC5)c4)c3)[nH]c12.O=C(O)C(F)(F)F
5. O=C(NCc1ccccn1)C(c1cc2ccccc2o1)N1CCN(C(c2ccccc2)c2ccccc2)CC1 (configuration not stated)
6. Cc1ccc(N2CCN(CCCCNC(=O)c3ccc(NC(=O)c4ccc(Cl)cc4)cc3)CC2)c(C)c1

Response line:
1: 100; 2: 86; 3: 98; 4: 90; 5: 95; 6: 95

Your task in this section: give Inhibition for each listed record.
1. Cc1c(Cn2nc(Cl)c(N3CCNCC3)cc2=O)cccc1NC(=O)Nc1ccc(-c2ccccc2)cc1.O=C(O)C(F)(F)F
2. CCCc1cc(Cc2cnc(N)nc2N)cc(CCC)c1O.Cl
3. CCCN1CCN(CCCNc2c3ccccc3nc3ccccc23)CC1.Cl
4. CC(C)(C)OC(=O)NCc1ccc(Nc2nnc(-c3cccc(C(=O)NCc4cc(C(F)(F)F)cc(C(F)(F)F)c4)c3)o2)cc1
5. Cc1ccc(Nc2ccnc(Nc3ccc4c(c3)CS(=O)(=O)C4)n2)cc1O.Cl

Response line:
1: 80; 2: 96; 3: 99; 4: 90; 5: 100

Prompt line: Quick one: Inhibition for CC(C)(C)c1ccc(-c2csc(NC(=O)CC(c3ccccc3)c3ccccc3)n2)cc1 ?
Response line: 86
